Test system: OVCAR-5
Assay: NCI tumour cell line growth inhibition, 48 h
Active and inactive are the calls of the source. No stated cut-off is given here; in the data, active = GI50 up to about 1.1 µM and inactive = higher.
We begin with a simple list: items and their reported GI50.

These solved cases illustrate the format of a correct answer.
Given the compound `CCOC(=O)c1cnc2oc(-c3ccc(OC)cc3)nn2c1=O` and test system OVCAR-5, the measured GI50 is > 100 µM (inactive)

Given the compound `CCCCCCCCCCOC(=O)c1cc[n+](C)cc1` and test system OVCAR-5, the measured GI50 is 13.6 µM (inactive)

Given the compound COc1ccc2c(=O)c(C)c(-c3ccccc3)oc2c1CN(C)C [DIMEFLINE] and test system OVCAR-5, the measured GI50 is 65.5 µM (inactive)

Now for a further compound.
Given the compound `Cc1ccc(S(=O)(=O)N2CCN(S(=O)(=O)c3ccc(C)cc3)CCN(S(=O)(=O)c3ccc(C)cc3)Cc3cc(C#N)c(C#N)cc3CN(S(=O)(=O)c3ccc(C)cc3)CC2)cc1` and test system OVCAR-5, the measured GI50 is > 100 µM (inactive)

These measurements were taken from ChEMBL document CHEMBL1201862.
